- System: M14 melanoma
- ASSAY: NCI-60 one-dose screen, 48 h
- COND: 10 µM unless noted
The panel holds about 83,000 compounds, 20% with a hit somewhere; the sample as a whole holds those more often. Active and inactive are the calls of the source. The calls were made as follows: active = growth percent below 10; inactive = the rest.
Select the matching outcome among active, inactive

Just curious, what result did O=C1/C(=C(/c2ccccc2)N2CCOCC2)Cc2ccccc21 get here?
active

Just curious, what result did O=C1CSC(=S)N1CCc1ccc(O)cc1 get here?
inactive

Just curious, what result did CCOc1nc(-c2ccccc2)cc2c(O)c(C(=O)N/N=C/c3ccc(O)cc3O)[nH]c(=O)c12 get here?
inactive

Just curious, what result did C=C1C(=O)O[C@H]2[C@H]1CC/C(COC(=O)NCc1ccc(OC)c(OC)c1)=C\CC[C@@]1(C)O[C@@H]21 get here?
inactive

Just curious, what result did COc1ccc2[nH]cc(-c3noc(C(=O)c4cn(C)c5ccc(F)cc45)n3)c2c1 get here?
inactive

Just curious, what result did COc1ccc(-c2nc(SCC(=O)Nc3ccc(C(=O)/C=C/c4ccc(Cl)cc4)cc3)[nH]c(=O)c2C#N)cc1 get here?
inactive

Just curious, what result did CSc1nc2c(c(=O)[nH]1)C1(C(=O)Nc3ccccc31)c1c(nc(SC)[nH]c1=O)N2 get here?
inactive

Just curious, what result did c1ccc(Cn2cc(-c3nc4ccccc4s3)c3cccnc32)cc1 get here?
inactive

Just curious, what result did COC(=O)c1ccc(NC(=O)c2ccc(-c3cccc([N+](=O)[O-])c3)o2)cc1 get here?
inactive

Just curious, what result did O=C1NC(=Nc2ccc(O)cc2)S/C1=C\c1cccc(Cl)c1 get here?
inactive

Just curious, what result did CSc1ccc(-c2ccccc(=O)c2O)cc1 get here?
active

Just curious, what result did C#CCOc1ccc2ncnc(NCc3cccc(NC(=O)CCl)c3)c2c1 get here?
inactive

Just curious, what result did O=C1c2cc3c(cc2-c2c1c1ccc(Cl)cc1c(=O)n2CCCN1CCOCC1)OCO3 get here?
inactive

Just curious, what result did Cc1[nH]c(-c2cc(N)ccc2Cl)c2c1C(=O)CCCC2 get here?
inactive

Just curious, what result did CCN(CC)c1ccc2c(c1)Oc1nc(N)c(C#N)c(N)c1C2Sc1ccc(SC)cc1 (stereo not given) get here?
active

Just curious, what result did O=C1NC(=S)N[C@H]1CC(=O)n1cnc2ccccc21 get here?
inactive

Just curious, what result did CC(C)CSc1nc(N)nc2c1ncn2C1OC(CO)C(O)C1O (stereo not given) get here?
inactive

Just curious, what result did CN(C)C(=S)N=Nc1c(O)[nH]c2ccccc12 get here?
active

Just curious, what result did N#C/C(=C\c1ccc(-c2ccc(Cl)c(Cl)c2)o1)c1nc(-c2ccco2)cs1 get here?
inactive

Just curious, what result did C#CC(F)(F)[C@]1(O)CC[C@H]2[C@@H]3CCC4=CC(=O)CCC4=C3[C@@H](c3ccc(C4CC4)cc3)C[C@@]21C get here?
inactive

Just curious, what result did O=C(/C=C/c1ccc(C(F)(F)F)cc1)Nc1ccc(C=C2c3ccccc3C(=O)c3ccccc32)cc1 get here?
inactive

Just curious, what result did O=C(COc1ccc(/C=C2\CSc3ccccc3C2=O)cc1)Nc1nccs1 get here?
inactive

Just curious, what result did CC/C=C\C/C=C\C[C@H]1C/C=C2/C(=O)C=C[C@@H]2C/C=C\CCC(=O)O1 get here?
active

Just curious, what result did Cn1cc(C(=O)c2nc(-c3c[nH]c4ccccc34)no2)c2ccccc21 get here?
inactive

Just curious, what result did Cc1ccc(/C=C2\SC(=S)N(CC(=O)NCCCN3CCOCC3)C2=O)cc1 get here?
inactive

---

- System: NCI-H522 lung
- ASSAY: NCI-60 one-dose screen, 48 h
- COND: 10 µM unless noted
About 83,000 compounds went through this panel and 20% of them were active in at least one assay; those are over-represented in the sample as a whole. Activity calls are given as the source filed them. Rule for the calls: active = growth percent below 10; inactive = the rest.
Select the matching outcome among T for active, F for inactive

Just curious, what result did COC(=O)[C@]12CCC(C)(C)C[C@H]1[C@H]1C(=O)C[C@@H]3[C@@]4(C)c5c([nH]c6ccccc6c5=O)C(C)(C)[C@@H]4CC[C@@]3(C)[C@]1(C)CC2 get here?
F

Just curious, what result did C#CCOc1ccc2ncnc(NCc3cccc(NC(=O)CCl)c3)c2c1 get here?
T

Just curious, what result did CC(=O)O[C@H]1[C@@H]2OC(=O)C(CSc3ccccc3)[C@@H]2C[C@H]2O[C@]2(C)CC/C=C(\C)CCC[C@@H]1C (some centres undefined) get here?
T

Just curious, what result did COC(=O)c1ccc(NC(=O)c2ccc(-c3cccc([N+](=O)[O-])c3)o2)cc1 get here?
F

Just curious, what result did CCNC(=O)Oc1ccc(/C(=C(\C)c2ccc(Cl)cc2)c2ccc(OCCN3CCCCC3)cc2)cc1 get here?
F

Just curious, what result did FC(F)(F)Oc1ccc2nc3nc4ccc[nH]c4cc3c2c1 get here?
F

Just curious, what result did C#CCOc1ccc2ncnc(N3CCC(NC(=O)CCl)CC3)c2c1 get here?
F

Just curious, what result did Clc1ccc2c(NCCCNc3nc(-n4ccnc4)nc4ccccc34)ccnc2c1 get here?
F

Just curious, what result did OC(COc1cccc2ccccc12)CN1CCN(c2ccccc2Cl)CC1 (centres undefined) get here?
F

Just curious, what result did O=[N+]([O-])c1ccccc1/C=N\NC(=S)N/N=C/c1ccccc1[N+](=O)[O-] get here?
F

Just curious, what result did COc1ccc(/C=C/c2nc3ccccc3nc2/C=C/c2ccc(OC)cc2)cc1 get here?
F

Just curious, what result did CS(=O)(=O)c1ccc(-n2nc(-c3ccc(Br)cc3)c3ccccc3c2=O)cc1 get here?
F

Just curious, what result did O=C1c2cc3c(cc2-c2c1c1ccc(Cl)cc1c(=O)n2CCCN1CCOCC1)OCO3 get here?
F

Just curious, what result did O=C(COc1cccc(/C=C2\CSc3ccccc3C2=O)c1)Nc1nccs1 get here?
T

Just curious, what result did COc1cc(/C=C/C(=O)c2cccnc2Nc2ccc(F)cc2)cc(OC)c1OC get here?
F

Just curious, what result did OC(c1cc2cc(Cl)c(Cl)cc2c2cc(C(F)(F)F)ccc12)C1CCCCN1 (centres undefined) get here?
T

Just curious, what result did COc1ccc(S(=O)(=O)N2CCCCC2)cc1NC(=O)c1[nH]c(C)c2c1CCCCC2=O get here?
T

Just curious, what result did CC(=O)NCC1c2c(n(C)c3c(Cl)c(Cl)ccc23)C(=O)NC1(C)C (centres undefined) get here?
F

Just curious, what result did COc1cccc(-c2nc3sccn3c2-c2ccnc(NCCCNS(=O)(=O)c3cccc(Cl)c3)c2)c1 get here?
F

Just curious, what result did CC(=O)OC[C@H]1O[C@H](OC(C)=O)[C@H](NC(=O)/C=C/CCl)[C@@H](OC(C)=O)[C@@H]1OC(C)=O get here?
T

Just curious, what result did Nc1n[nH]c2ccc([C@@H]3Nc4ccc5cn[nH]c5c4[C@H]4C5CCC(C5)[C@@H]34)cc12 (some centres undefined) get here?
F

Just curious, what result did O=C1C=C(O)C(=O)C(CC2=C(O)C(=O)C=C(O)C2=O)=C1O get here?
F

Just curious, what result did C=CC(=O)Nc1cccc(Nc2nc(SC)nc(-c3cccc([N+](=O)[O-])c3)c2C#N)c1 get here?
F

Just curious, what result did CCOC(=O)c1c(C)oc2ncnc(N3CCN(C(=S)Nc4ccccc4)CC3)c12 get here?
F

---

- Test system: SR leukemia
- ASSAY: NCI-60 one-dose screen, 48 h
- COND: 10 µM unless noted
The panel holds about 83,000 compounds, 20% with a hit somewhere; the sample as a whole holds those more often. Calls of active or inactive are those of the source. Rule for the calls: active = growth percent below 10; inactive = the rest.
Select the matching outcome among active, inactive

Just curious, what result did O=C1c2cc3c(cc2-c2c1c1ccc(F)cc1c(=O)n2C[C@H](O)[C@@H](O)[C@H](O)CO)OCO3 get here?
active

Just curious, what result did COc1ccc(/C=C/c2nc3ccccc3nc2/C=C/c2ccc(OC)cc2)cc1 get here?
inactive

Just curious, what result did Cn1cccc1-c1nc2c3c(ccc2[nH]1)C(=O)c1ccccc1C3=O get here?
inactive

Just curious, what result did O=C(CN(C(=O)Cn1c(=O)n2nnnc2c2ccccc21)c1ccccc1C(F)(F)F)Nc1ccc(C(F)(F)F)cc1 get here?
inactive

Just curious, what result did COc1ccc(-c2nc(SCC(=O)Nc3ccc(C(=O)/C=C/c4ccc(Cl)cc4)cc3)[nH]c(=O)c2C#N)cc1 get here?
inactive

Just curious, what result did NS(=O)(=O)c1ccc(CN=C2NC(=O)S/C2=C\c2ccc(Br)cc2)cc1 get here?
inactive

Just curious, what result did O=C1/C(=C/c2ccc(Cl)cc2)SC(=S)N1CCc1ccc(O)cc1 get here?
inactive

Just curious, what result did COc1cc(/C=C/C(=O)c2cccnc2Nc2ccc(F)cc2)cc(OC)c1OC get here?
active

Just curious, what result did CCc1nc(N)nc(N)c1C#CC(C)c1ccc(-c2ccncc2)cc1Cl (stereo not given) get here?
inactive

Just curious, what result did Nc1ccc(-c2cc3c(Nc4ccc(Oc5cccc(C(F)(F)F)c5)c(Cl)c4)ncnc3s2)cc1 get here?
inactive
